- assay: chemical genetic growth profiling, strain panel (AID 1159580);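 further: tested at 20 µM; growth read once vehicle control cultures reached saturation at 30 °C; lower values mean less growth of the strain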
- assay_setup: S. cerevisiae deletion strains, growth OD, locus YOR106W, strain vam3
In all, about 5,500 compounds went through this assay and about 2,000 (36%) were called active. Another 18% or so got no clear call; they are omitted. No stated cut-off is given here; in the data, active means normalized growth mostly below about 0.91 (no sharp cut-off); inconclusive means no clear call, values can overlap the other calls; inactive means mostly above about 0.92. This is one part of the list.
Outcome codes: active, inactive

molecule | group_label
CN(C)c1ccc2nc3ccc(=[N+](C)C)cc-3sc2c1 | inactive
Cc1[nH]ccc2c1[nH]c1cc(=O)ccc12 | inactive
O=C(OC1Cc2c(O)cc(O)cc2OC1c1cc(=O)c(O)c2c(O)c(O)cc(C3Oc4cc(O)cc(O)c4CC3O)c2c1)c1cc(O)c(O)c(O)c1 (stereo unspecified) | active
CC(C)c1c(O)ccc2c1CCC1C(C)(C)CCC[C@]21C (stereo partly specified) | active
CC(C)(C)NCC(O)c1cc(Cl)c(N)c(Cl)c1 (stereo unspecified) | inactive
CCN[C@@H]1C[C@H](N)[C@@H](O[C@H]2OC(CN)=CC[C@H]2N)[C@H](O)[C@H]1OC1OC[C@](C)(O)[C@H](NC)[C@H]1O (stereo partly specified) | inactive
NC(=NCCC[C@H](N)C(=O)O)N[N+](=O)[O-] | inactive
COc1ccc(-c2oc3c(CC=C(C)C)c(O[C@@H]4O[C@H](CO)[C@@H](O)[C@H](O)[C@H]4O)cc(O)c3c(=O)c2O[C@@H]2O[C@@H](C)[C@H](O)[C@@H](O)[C@H]2O)cc1 | inactive
CCCCOc1cc(C(=O)NCCN(CC)CC)c2ccccc2n1 | inactive
O=c1cc(-c2ccc(O)cc2)oc2cc(O[C@@H]3O[C@H](CO)[C@@H](O)[C@H](O)[C@H]3O)cc(O)c12 | inactive
O=c1c(O)c(-c2ccc(O)cc2O)oc2cc(O)cc(O)c12 | inactive
O=c1c(O)c(-c2ccc(O)c(O)c2)oc2cc(O)cc(O)c12 | active
CC(=O)[C@@]1(O)CCC2C3C[C@H](C)C4=CC(=O)C=CC4(C)[C@@]3(F)[C@@H](O)C[C@@]21C (stereo partly specified) | inactive
CO[C@@]1(NC(=O)C(C(=O)O)c2ccc(O)cc2)C(=O)N2C(C(=O)O)=C(CSc3nnnn3C)CO[C@@H]21 (stereo partly specified) | inactive
CC(=O)OCC1=C(C(=O)O)N2C(=O)[C@@H](NC(=O)Cc3cccs3)[C@H]2SC1 | inactive
CCCCCCC(C)OC(=O)COc1ccc(Cl)cc1Cl (stereo unspecified) | inactive
CC(CC(O)C1OC1(C)C)[C@@H]1CCC2(C)C3=CCC4C(C)(C)C(=O)CCC4(C)C3CC[C@@]12C (stereo partly specified) | inactive
NS(=O)(=O)c1cc(C2(O)NC(=O)c3ccccc32)ccc1Cl (stereo unspecified) | inactive
NC(=O)NCCCC(N)C(=O)O (stereo unspecified) | inactive
COc1cccc2c(C)cc(=O)[nH]c12 | inactive
O=C(O[C@@H]1Cc2c(O)cc(O)cc2O[C@@H]1c1cc(O)c(=O)c2c(O)c(O)cc([C@H]3Oc4cc(O)cc(O)c4C[C@H]3O)c2c1)c1cc(O)c(O)c(O)c1 | active
CC(=O)Oc1ccc2c(c1OC(C)=O)OCC1(O)Cc3c(cc(OC(C)=O)c(OC(C)=O)c3OC(C)=O)C21 (stereo unspecified) | inactive
CC(C)N(CCC(C(N)=O)(c1ccccc1)c1ccccn1)C(C)C (stereo unspecified) | active
COc1ccc(-c2cc(=O)c3c(O)cc(O[C@H]4O[C@H](CO[C@@H]5O[C@@H](C)[C@H](O)[C@@H](O)[C@H]5O)[C@@H](O)[C@H](O)[C@H]4O)cc3o2)cc1 | inactive
CC(C1OC(C)(C)C(O)C1O)[C@@H]1CC[C@]2(C)C3=CCC4C(C)(C)C(=O)CC[C@]4(C)C3CC[C@@]12C (stereo partly specified) | inactive
CC(C)c1c(O)c(-c2cc3c(c(C(C)C)c2O)CCC2C(C)(C)CCC[C@]32C)cc2c1CCC1C(C)(C)CCC[C@]21C (stereo partly specified) | inactive
COC(=O)[C@@]1(C)CCC[C@]2(C)c3ccc(O)c(C(C)C)c3CCC12 (stereo partly specified) | active
CC(C)(C)NCC(O)c1cc(O)cc(O)c1 (stereo unspecified) | inactive
CCCCCCCCCCCC1=C(O)C(=O)C=C(O)C1=O | active
CC(CC(C(N)=O)(c1ccccc1)c1ccccc1)N(C)C (stereo unspecified) | inactive
N#Cc1nn(-c2c(Cl)cc(C(F)(F)F)cc2Cl)c(N)c1S(=O)C(F)(F)F (stereo unspecified) | inactive
CN1C[C@H](C(=O)N[C@]2(C)O[C@@]3(O)[C@@H]4CCCN4C(=O)[C@H](Cc4ccccc4)N3C2=O)C[C@@H]2c3cccc4[nH]cc(c34)C[C@H]21 | inactive
COC1=CC(=O)C(C(=O)c2ccccc2)=CC1=O | inactive
COC(=O)[C@]1(C)CCC[C@]2(C)c3ccc(C(C)C)cc3C(=O)CC12 (stereo partly specified) | inactive
COc1ccccc1/C=C\C(=O)O | inactive
CC(C)c1c(O)ccc2c1CCC1[C@@](C)(C=O)CCC[C@]21C (stereo partly specified) | active
